All figures here come from PubChem BioAssay (NCI).

# Experiment: NCI Yeast Anticancer Drug Screen. Data for the sgs1 mgt1 strain (AID 161);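 further: 0% = growth of cultures given vehicle only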
# Test Settings: S. cerevisiae sgs1 mgt1 strain, at 50.0 µM (retest, dose inferred, filed as 5.0)
About 79,000 compounds went through this panel and 15% of them were active in at least one assay; those are over-represented in the sample as a whole. Active and inactive are the calls of the source. No stated cut-off is given here; in the data, active means growth inhibition above about 70%; inactive means the rest.
Possible outcomes: active, inactive

>>> qualitative_label("Cc1cccc(C[P+](c2ccccc2)(c2ccccc2)c2ccccc2)c1")
"active"
>>> qualitative_label("O=C(Nc1ccccc1)c1ccc(Cl)cc1Cl")
"inactive"
>>> qualitative_label("CCN(CC)C(=O)C1(OC(C)=O)CCCCC1")
"inactive"
>>> qualitative_label("COc1ccc(C2=C(Cl)C(=O)N(c3ccc(OC)cc3OC)C(=O)C2(Cl)Cl)cc1")
"inactive"
>>> qualitative_label("COc1cc(C(c2cc3c(cc2O)OCO3)N2CCOCC2)cc(OC)c1OC (stereo not given)")
"inactive"

###

Each entry below carries its recorded growth inhibition.
# Experiment: NCI Yeast Anticancer Drug Screen. Data for the cln2 rad14 strain (AID 165);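 further: 0% = growth equal to vehicle treated cultures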
# Test Settings: S. cerevisiae cln2 rad14 strain, at 5.0 µM (retest, dose inferred, filed as 0.5), active compounds read high
About 79,000 compounds went through this panel and 15% of them were active in at least one assay; those are over-represented in the sample as a whole.
Readout Kind: growth inhibition (%)

>>> recorded_result("O=c1ccccn1CCc1cccc2cc(O)ccc12")
-1
>>> recorded_result("COc1ccc2c(c1)C(=O)C(Br)CC2 (stereo not drawn)")
26
>>> recorded_result("Cc1ccc(C(=Nc2ccccc2)N=P(c2ccccc2)(c2ccccc2)c2ccccc2)cc1")
39
>>> recorded_result("CSC(=S)NN=C1CCCCC1")
9
>>> recorded_result("Nc1ccc(C2CCC[C@H]2c2ccc(N)cc2)cc1 (stereo partly drawn)")
1
>>> recorded_result("CCOc1cc(/C=N/NC(=S)NC23CC4CC(CC(C4)C2)C3)ccc1O")
49
>>> recorded_result("O=C(CN(Cc1ccccc1)Cc1ccccc1)c1ccccc1")
3
>>> recorded_result("O=C1OC(c2ccccc2)CC1Cc1ccccc1 (stereo not drawn)")
9
>>> recorded_result("O=S1(=O)CS(=O)(=O)OCCCO1")
12
>>> recorded_result("Cc1cc(/C=C/c2cccc[n+]2C)c(C)n1-c1ccccc1")
-4
>>> recorded_result("COC(=O)c1nc2ccc([N+](=O)[O-])cc2n1O")
-53
>>> recorded_result("O=C(/C=C\\c1cc(Br)ccc1O)/C=C/c1cc(Br)ccc1O")
36
>>> recorded_result("COCCCNC(=S)N/N=C/c1cc(Cl)cc(Cl)c1O")
10
>>> recorded_result("O=C(O/N=C1/CCCC/C1=C\\c1ccccc1)c1ccccc1")
47
>>> recorded_result("COc1ccc(C2Oc3c(cccc3OC)C=C2[N+](=O)[O-])cc1 (stereo not drawn)")
12
>>> recorded_result("CCCCN(CCCC)Cc1ccc(NC(C(=O)c2ccccc2)c2ccccc2)cc1 (stereo not drawn)")
-1
>>> recorded_result("CCCN(CCC)C(=S)N/N=C(/C)c1ccccc1O")
-26
>>> recorded_result("CCCN1C(=O)c2ccccc2C1=O")
10

###

# Experiment: NCI Yeast Anticancer Drug Screen. Data for the mlh1 rad18 strain (AID 175)
# Test Settings: S. cerevisiae mlh1 rad18 strain growth inhibition; at 50.0 µM (retest, dose inferred, filed as 5.0)
Compounds without any hit were thinned out: in the full panel of roughly 79,000, 15% have a hit. Activity calls are given as the source filed them. Cut-off read from the data, not from the text of the source: active = growth inhibition above about 70%; inactive = the rest.
Labels: active, inactive

>>> qualitative_label("COc1ccc(C(C#N)=C2C=CC(=NOC(=O)Nc3ccccc3)C=C2)cc1")
"active"
>>> qualitative_label("Cc1cc(N/N=C/c2cccc3ccccc23)c2cc3c(cc2n1)OCO3")
"active"
>>> qualitative_label("CC[N+]1(C)CCC(O)(/C=C/c2ccccc2)C(C(=O)/C=C/c2ccccc2)C1 (configuration not stated)")
"active"
>>> qualitative_label("Clc1ccc(N=Cc2c3ccccc3cc3ccccc23)c(Cl)c1")
"inactive"
>>> qualitative_label("COC1(OC)CNC(C(=O)O)C1 (configuration not stated)")
"inactive"
>>> qualitative_label("CN(C)CC1CCC/C(=C\\c2ccc(Cl)cc2)C1=O (configuration not stated)")
"active"
>>> qualitative_label("COc1ccc(C2SCC(=O)N2c2nncs2)cc1 (configuration not stated)")
"inactive"
>>> qualitative_label("CCOC(=O)c1cc2c(nc1N)/C(=C/c1ccccc1)CCCC2")
"active"
>>> qualitative_label("O=C(C[n+]1ccc2ccccc2c1)c1ccc(-c2ccccc2)cc1")
"active"
>>> qualitative_label("O=C1CCCc2cc3c(nc21)C(=O)CCC3")
"inactive"
>>> qualitative_label("O=C(NCCCNCCNC(=O)c1cc(-c2ccccc2)nc2ccccc12)c1cc(-c2ccccc2)nc2ccccc12")
"active"
>>> qualitative_label("CN=C(N)N/N=C(\\C)c1ccc2c(c1)Cc1cc(/C(C)=N/NC(N)=NC)ccc1-2")
"active"
>>> qualitative_label("CS(=O)(=O)OCCN(CCOS(C)(=O)=O)c1ccc(C=Nc2cccc(Cl)c2)cc1")
"active"
>>> qualitative_label("CNc1ccc2c(c1)c1ccccc1n2C")
"inactive"
>>> qualitative_label("CC(=O)OC1(c2ccccc2)N=C(c2ccccc2)N=C1c1ccccc1 (configuration not stated)")
"inactive"
>>> qualitative_label("CC1(C)N=C(N)N=C(N)N1c1cccc(CCCCC(=O)CCl)c1")
"active"
>>> qualitative_label("COc1ccc(N=N/N=c2\\sc3cc(OC)ccc3n2C)cc1")
"active"
>>> qualitative_label("COc1ccc(/C=C(\\C#N)c2ccccc2)cc1OC")
"inactive"
>>> qualitative_label("CN(C)CC1CC/C(=C\\c2ccc(O)cc2)C1=O (configuration not stated)")
"active"
>>> qualitative_label("O=S(=O)(Nc1ccc2ccccc2c1)c1ccccc1")
"active"
>>> qualitative_label("O=C1CC(=S)NC(=S)N1")
"inactive"
>>> qualitative_label("Cc1ccc2c(ccc3c[n+]4c5ccccc5ccc4n32)c1")
"active"
>>> qualitative_label("COc1ccc(C2Oc3c(cccc3OC)C=C2[N+](=O)[O-])cc1 (configuration not stated)")
"active"
>>> qualitative_label("OC1(C2c3ccccc3-c3ccccc32)c2ccccc2-c2ccccc21")
"active"
>>> qualitative_label("O=C(O)c1c2c(cc3c1CC1(Cc4cc5c(cc4C1=O)CCC5)C3)CCC2 (configuration not stated)")
"inactive"
>>> qualitative_label("O=C1C=CC2=Nc3ccccc3CCC2=C1")
"active"
>>> qualitative_label("CC(C)(C)N/N=C(\\C(=O)NC1=C(Cl)C(=O)c2ccccc2C1=O)C1C=CCS1(=O)=O (configuration not stated)")
"active"
>>> qualitative_label("COc1ccc(C(=O)Oc2c(Br)cc(Br)cc2Br)cc1")
"inactive"
>>> qualitative_label("O=c1c(S(=O)(=O)Oc2ccccc2)coc2cc(F)ccc12")
"active"
>>> qualitative_label("Cc1ccc(NS(=O)(=O)c2ccc(C)cc2)cc1")
"active"
>>> qualitative_label("CC(C)(CN1CCCCC1)C(=O)CC(SCCS(=O)(=O)O)c1ccc(Cl)cc1 (configuration not stated)")
"active"
>>> qualitative_label("O=C(c1ccco1)N(C(=S)N1CCN(c2ccccn2)CC1)c1ccccc1")
"active"
>>> qualitative_label("CCOC(=O)c1c(-c2ccccc2)csc1NC(=O)CBr")
"active"
>>> qualitative_label("CCCCCCN(CCCCCC)CC(O)c1cc(-c2ccccc2)nc2c(O)cccc12 (configuration not stated)")
"active"
>>> qualitative_label("N=C(/C(=C/c1ccccc1)c1ccccc1)c1ccccc1")
"active"
>>> qualitative_label("OC1(C2CCCCC2)c2ccccc2Cc2ccccc21")
"active"
>>> qualitative_label("CN(C)CCC(=O)C(=Cc1cc(Cl)cc(Cl)c1)C(=O)CCN(C)C")
"active"
>>> qualitative_label("O=Nc1c(-c2cccc([N+](=O)[O-])c2)nc2cnccn12")
"active"
>>> qualitative_label("Cc1occc1C(=S)Nc1ccc(Cl)c(C(=O)OCC2CC2)c1")
"inactive"
>>> qualitative_label("NNC(=O)c1c(SCc2ccccc2)nc2c3ccccc3ccn12")
"active"
>>> qualitative_label("O=[N+]([O-])c1cccc2nc3ccccc3c(NCCO)c12")
"active"
>>> qualitative_label("C/C(=N/Nc1ccccc1)C(=O)O")
"active"

###

Items are presented alongside their recorded growth inhibition.
# Experiment: NCI Yeast Anticancer Drug Screen. Data for the rad50 strain (AID 155);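 further: 0% = growth of vehicle-only cultures of the same strain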
# Test Settings: S. cerevisiae rad50 strain growth inhibition; at 50.0 µM (retest, dose inferred, filed as 5.0); active compounds read high
Compounds without any hit were thinned out: in the full panel of roughly 79,000, 15% have a hit. The source made the active and inactive calls. Cut-off read from the data, not from the text of the source: active = growth inhibition above about 70%; inactive = the rest.
Readout Kind: growth inhibition

>>> recorded_result("O=C(/C=C\\c1cc(Br)ccc1O)/C=C/c1cc(Br)ccc1O")
"90% (active)"
>>> recorded_result("S=C(N/N=C(/c1ccccc1)c1ccccn1)Nc1cccc(Cl)c1")
"88% (active)"
>>> recorded_result("CC1C(c2ccc3c(c2)OCO3)c2cc3c(cc2OC1N1CCOCC1)OCO3 (stereo not given)")
"49% (inactive)"
>>> recorded_result("c1ccc(-c2cnc3nc4ccccc4nc3n2)cc1")
"89% (active)"
>>> recorded_result("CCNc1ccc2c(c1)Cc1ccccc1-2")
"91% (active)"
